In what follows, each item is paired with its pIC50 for human VEGFR2 (Homo sapiens (Human), UniProt P35968).
pIC50: −log10 of the molar value. Structures can show the parent of a compound that is named as a salt.
Property: pIC50

>>> test_result("Cn1cc(-c2ccn3c(-c4cc(NS(C)(=O)=O)nc(-c5ccc(F)cc5F)c4)cnc3c2)cn1 [Trifluoroacetate salt of compound 7]")
8.53
>>> test_result("CCCS(=O)(=O)Nc1cc(-c2cnc3cc(-c4cnn(C)c4)ccn23)cc(-c2ccc(F)cc2F)n1 [Trifluoroacetate salt of compound 8]")
7.83
>>> test_result("CCOC(=O)Nc1cc(-c2cnc3cc(-c4cnn(C)c4C)ccn23)cc(-c2ccc(F)cc2F)n1 [Trifluoroacetate salt of compound 12]")
8.03
>>> test_result("Cn1cc(-c2ccn3c(-c4cc(NCC(C)(C)O)nc(-c5ccc(F)cc5F)c4)cnc3c2)cn1")
8.43

[1] Cn1cc(-c2ccn3c(-c4cc(NS(C)(=O)=O)cc(-c5ccc(F)cc5F)n4)cnc3c2)cn1 [Formate of compound C, reference compound]
[2] Cn1cc(-c2ccn3c(-c4cc(NS(=O)(=O)C5CC5)nc(-c5ccc(F)cc5F)c4)cnc3c2)cn1 [Trifluoroacetate salt of compound 1]
[3] Cn1cc(-c2ccc3c(c2)ncn3-c2cc(NS(C)(=O)=O)cc(-c3ccc(F)cc3F)c2)cn1 [Trifluoroacetate of compound B, reference compound]
[4] Cc1cc(F)ccc1-c1cc(-c2cnc3cc(-c4cnn(C)c4)ccn23)cc(NS(=O)(=O)C2CC2)n1 [Trifluoroacetate salt of compound 2]
[5] CCOC(=O)Nc1cc(-c2cnc3cc(-c4cnn(C)c4)ccn23)cc(-c2ccc(F)cc2C)n1 [Trifluoroacetate salt of compound 4]
Req: Give the ascending ranking of the items by reported pIC50. Ranked list of labels, please, in the requested order.
Resp: 1, 4, 5, 3, 2

* * *

Assay: Evaluation of the pharmacokinetics in female Balb/c mice (IV and PO)
Assay type: in vivo
Details: mouse, plasma; IV 2 mg/kg, female Balb/c mice
Experimental: […] About 30 μL blood samples were collected from the jugular vein at 0.0833, 0.25, 0.5, 1.0, 2.0, 4.0, 8.0, 24 h after administration and from the tail vein at 0.25, 0.5, 1.0, 2.0, 4.0, 8.0, 24 h after administration, and the blood samples were put in an anticoagulation tube containing EDTA-K2, the plasma was separated by centrifugation. […]
Where a name gives a salt, the structure may show the parent alone.
Property: half-life (h)
Write down the numeric answer in h and omit the unit.

Req: Kindly indicate its recorded half-life. Item: Cn1cc(-c2ccn3c(-c4cc(NS(=O)(=O)C5CC5)nc(-c5ccc(F)cc5F)c4)cnc3c2)cn1 [Trifluoroacetate salt of compound 1]
Resp: 1.6

* * *

assay: Evaluation of the pharmacokinetics in female Balb/c mice (IV and PO); assay type: in vivo; settings: mouse, plasma; IV 0.2 mg/kg, female Balb/c mice
Where a name gives a salt, the structure may show the parent alone.
Property: AUC(0-inf) (µM·h)
Write down the numeric answer in µM·h and omit the unit.

>>> test_result("Cn1cc(-c2ccn3c(-c4cc(NS(C)(=O)=O)nc(-c5ccc(F)cc5F)c4)cnc3c2)cn1 [Trifluoroacetate salt of compound 7]")
0.871

Req: Kindly indicate its recorded AUC(0-inf). Item: Cn1cc(-c2ccc3c(c2)ncn3-c2cc(NS(=O)(=O)C3CC3)cc(-c3ccc(F)cc3F)c2)cn1 [Trifluoroacetate of compound A, reference compound]
Resp: 0.717

* * *

experiment: Evaluation of the pharmacokinetics in female Balb/c mice (IV and PO); assay type: in vivo; conditions: mouse, plasma; IV 2 mg/kg, female Balb/c mice
Structures can show the parent of a compound that is named as a salt.
Property: AUC(0-t) (µM·h)
Write down the numeric answer in µM·h and omit the unit.

Req: Kindly indicate its recorded AUC(0-t). Item: Cn1cc(-c2ccn3c(-c4cc(NS(=O)(=O)C5CC5)nc(-c5ccc(F)cc5F)c4)cnc3c2)cn1 [Trifluoroacetate salt of compound 1]
Resp: 13.3

* * *

Each record here notes measured Cmax.
test: Evaluation of the pharmacokinetics in female Balb/c mice (IV and PO); type: in vivo; conditions: mouse; PO 1 mg/kg, female Balb/c mice, plasma
Structures can show the parent of a compound that is named as a salt.
Write down the numeric answer in nM and omit the unit.

>>> test_result("Cn1cc(-c2ccn3c(-c4cc(NS(C)(=O)=O)nc(-c5ccc(F)cc5F)c4)cnc3c2)cn1 [Trifluoroacetate salt of compound 7]")
973

Next item in the queue.
Req: Kindly indicate its recorded Cmax. Item: Cn1cc(-c2ccc3c(c2)ncn3-c2cc(NS(=O)(=O)C3CC3)cc(-c3ccc(F)cc3F)c2)cn1 [Trifluoroacetate of compound A, reference compound]
Resp: 469

* * *

Each record here notes measured bioavailability.
assay: Evaluation of the pharmacokinetics in female Balb/c mice (IV and PO); type: in vivo; details: mouse, plasma; PO 1 mg/kg vs IV 0.2 mg/kg, female Balb/c mice; read-out: F (bioavailability)
Where a name gives a salt, the structure may show the parent alone.
Write down the numeric answer in % and omit the unit.

>>> test_result("Cn1cc(-c2ccn3c(-c4cc(NS(C)(=O)=O)nc(-c5ccc(F)cc5F)c4)cnc3c2)cn1 [Trifluoroacetate salt of compound 7]")
59.3

Req: Kindly indicate its recorded bioavailability. Item: Cn1cc(-c2ccc3c(c2)ncn3-c2cc(NS(=O)(=O)C3CC3)cc(-c3ccc(F)cc3F)c2)cn1 [Trifluoroacetate of compound A, reference compound]
Resp: 40.3

* * *

assay: Evaluation of the pharmacokinetics in female Balb/c mice (IV and PO); format: in vivo; conditions: mouse, plasma; PO 10 mg/kg, female Balb/c mice
Counter-ions that a name gives are not always drawn.
Property: Tmax (h)
Write down the numeric answer in h and omit the unit.

Req: Kindly indicate its recorded Tmax. Item: Cn1cc(-c2ccn3c(-c4cc(NS(=O)(=O)C5CC5)nc(-c5ccc(F)cc5F)c4)cnc3c2)cn1 [Trifluoroacetate salt of compound 1]
Resp: 1

* * *

Assay: Evaluation of the pharmacokinetics in female Balb/c mice (IV and PO)
Format: in vivo
Settings: mouse, plasma; PO 10 mg/kg, female Balb/c mice; read-out: MRT0-last
Protocol: […] About 30 μL blood samples were collected from the jugular vein at 0.0833, 0.25, 0.5, 1.0, 2.0, 4.0, 8.0, 24 h after administration and from the tail vein at 0.25, 0.5, 1.0, 2.0, 4.0, 8.0, 24 h after administration, and the blood samples were put in an anticoagulation tube containing EDTA-K2, the plasma was separated by centrifugation. […]
Structures can show the parent of a compound that is named as a salt.
Property: MRT last (h)
Write down the numeric answer in h and omit the unit.

Req: Kindly indicate its recorded MRT last. Item: Cn1cc(-c2ccn3c(-c4cc(NS(=O)(=O)C5CC5)nc(-c5ccc(F)cc5F)c4)cnc3c2)cn1 [Trifluoroacetate salt of compound 1]
Resp: 3.12

* * *

experiment: Evaluation of the pharmacokinetics in female Balb/c mice (IV and PO); format: in vivo; conditions: mouse; PO 10 mg/kg, female Balb/c mice, plasma
Where a name gives a salt, the structure may show the parent alone.
Property: Cmax (µM)
Write down the numeric answer in µM and omit the unit.

Req: Kindly indicate its recorded Cmax. Item: Cn1cc(-c2ccn3c(-c4cc(NS(=O)(=O)C5CC5)nc(-c5ccc(F)cc5F)c4)cnc3c2)cn1 [Trifluoroacetate salt of compound 1]
Resp: 5.3

* * *

assay: Evaluation of the pharmacokinetics in female Balb/c mice (IV and PO); format: in vivo; details: mouse, plasma; IV 2 mg/kg, female Balb/c mice
Structures can show the parent of a compound that is named as a salt.
Property: AUC(0-inf) (µM·h)
Write down the numeric answer in µM·h and omit the unit.

Req: Kindly indicate its recorded AUC(0-inf). Item: Cn1cc(-c2ccn3c(-c4cc(NS(=O)(=O)C5CC5)nc(-c5ccc(F)cc5F)c4)cnc3c2)cn1 [Trifluoroacetate salt of compound 1]
Resp: 13.7

* * *

experiment: Evaluation of the pharmacokinetics in female Balb/c mice (IV and PO); format: in vivo; conditions: mouse, plasma; PO 1 mg/kg, female Balb/c mice
Counter-ions that a name gives are not always drawn.
Each record here notes measured Tmax.
Write down the numeric answer in h and omit the unit.

>>> test_result("Cn1cc(-c2ccc3c(c2)ncn3-c2cc(NS(=O)(=O)C3CC3)cc(-c3ccc(F)cc3F)c2)cn1 [Trifluoroacetate of compound A, reference compound]")
1

Next item in the queue.
Req: Kindly indicate its recorded Tmax. Item: Cn1cc(-c2ccn3c(-c4cc(NS(C)(=O)=O)nc(-c5ccc(F)cc5F)c4)cnc3c2)cn1 [Trifluoroacetate salt of compound 7]
Resp: 1
